Experiment: Spectroscopic measurements (absorption, emission, quantum yield, extinction coefficient)
Format: physicochemical
Conditions: fluorescence emission maximum, BDNCA library
Property: Flu; scope: individual compounds

sample.smiles | Flu
CC(=O)Oc1ccc(/C=C/c2cc(C)c3n2[B-](F)(F)[N+]2=CC=CC2=C3c2ccc(NC(=O)CCl)cc2)cc1 | 594
Cc1cc(/C=C/c2cc(Cl)ccc2Cl)n2c1C(c1ccc(NC(=O)CCl)cc1)=C1C=CC=[N+]1[B-]2(F)F | 575
COc1cc(/C=C/c2cc(C)c3n2[B-](F)(F)[N+]2=CC=CC2=C3c2ccc(NC(=O)CCl)cc2)ccc1OCCN1CCCC1 | 608
CCOc1ccccc1/C=C/c1cc(C)c2n1[B-](F)(F)[N+]1=CC=CC1=C2c1ccc(NC(=O)CCl)cc1 | 585
CC1=CC(/C=C/c2ccc(-c3ccccc3)c(F)c2)=[N+]2C1=C(c1ccc(NC(=O)CCl)cc1)c1cccn1[B-]2(F)F | 583
Cc1cc(/C=C/c2cc(OC(F)(F)F)ccc2O)n2c1C(c1ccc(NC(=O)CCl)cc1)=C1C=CC=[N+]1[B-]2(F)F | 584
CC1=CC(/C=C/c2cccc(B(O)O)c2)=[N+]2C1=C(c1ccc(NC(=O)CCl)cc1)c1cccn1[B-]2(F)F | 574
CC1=CC(/C=C/c2ccccc2Oc2ccc(F)cc2)=[N+]2C1=C(c1ccc(NC(=O)CCl)cc1)c1cccn1[B-]2(F)F | 580
CCOc1c(/C=C/C2=[N+]3C(=C(c4ccc(NC(=O)CCl)cc4)c4cccn4[B-]3(F)F)C(C)=C2)cccc1OC | 581
CC1=CC(/C=C/c2c[nH]c3ccccc23)=[N+]2C1=C(c1ccc(NC(=O)CCl)cc1)c1cccn1[B-]2(F)F | 654
Cc1cc(/C=C/c2ccc(SC(F)(F)F)cc2)n2c1C(c1ccc(NC(=O)CCl)cc1)=C1C=CC=[N+]1[B-]2(F)F | 576
CCOc1ccc(/C=C/C2=[N+]3C(=C(c4ccc(NC(=O)CCl)cc4)c4cccn4[B-]3(F)F)C(C)=C2)cc1 | 599
Cc1cc(/C=C/c2ccc(-c3ccccc3)o2)n2c1C(c1ccc(NC(=O)CCl)cc1)=C1C=CC=[N+]1[B-]2(F)F | 656
CC1=CC(/C=C/c2ccc(C)cc2C)=[N+]2C1=C(c1ccc(NC(=O)CCl)cc1)c1cccn1[B-]2(F)F | 585
COc1cc(O)c(/C=C/C2=[N+]3C(=C(c4ccc(NC(=O)CCl)cc4)c4cccn4[B-]3(F)F)C(C)=C2)c(OC)c1 | 629
CCOc1cccc(/C=C/C2=[N+]3C(=C(c4ccc(NC(=O)CCl)cc4)c4cccn4[B-]3(F)F)C(C)=C2)c1OCC | 579
COc1ccc(/C=C/C2=[N+]3C(=C(c4ccc(NC(=O)CCl)cc4)c4cccn4[B-]3(F)F)C(C)=C2)cc1C | 602

###

Experiment: Spectroscopic measurements (absorption, emission, quantum yield, extinction coefficient)
Assay type: physicochemical
Conditions: BDNCA library, fluorescence emission

sample.smiles | Flu
CC1=CC(/C=C/c2ccc(-c3cncnc3)cc2)=[N+]2C1=C(c1ccc(NC(=O)CCl)cc1)c1cccn1[B-]2(F)F | 583
COc1ccc(/C=C/c2cc(C)c3n2[B-](F)(F)[N+]2=CC=CC2=C3c2ccc(NC(=O)CCl)cc2)c(Br)c1O | 596
CC1=CC(/C=C/c2ccc(-n3ccnc3)cc2)=[N+]2C1=C(c1ccc(NC(=O)CCl)cc1)c1cccn1[B-]2(F)F | 582
CC1=CC(/C=C/c2ccc(C)c(Cl)c2)=[N+]2C1=C(c1ccc(NC(=O)CCl)cc1)c1cccn1[B-]2(F)F | 586
